Values were extracted from PubChem BioAssay.

Target: NADPH oxidase 4 (Homo sapiens) (UniProt Q9NPH5)
Sequence (Q9NPH5 whole entry, looked up): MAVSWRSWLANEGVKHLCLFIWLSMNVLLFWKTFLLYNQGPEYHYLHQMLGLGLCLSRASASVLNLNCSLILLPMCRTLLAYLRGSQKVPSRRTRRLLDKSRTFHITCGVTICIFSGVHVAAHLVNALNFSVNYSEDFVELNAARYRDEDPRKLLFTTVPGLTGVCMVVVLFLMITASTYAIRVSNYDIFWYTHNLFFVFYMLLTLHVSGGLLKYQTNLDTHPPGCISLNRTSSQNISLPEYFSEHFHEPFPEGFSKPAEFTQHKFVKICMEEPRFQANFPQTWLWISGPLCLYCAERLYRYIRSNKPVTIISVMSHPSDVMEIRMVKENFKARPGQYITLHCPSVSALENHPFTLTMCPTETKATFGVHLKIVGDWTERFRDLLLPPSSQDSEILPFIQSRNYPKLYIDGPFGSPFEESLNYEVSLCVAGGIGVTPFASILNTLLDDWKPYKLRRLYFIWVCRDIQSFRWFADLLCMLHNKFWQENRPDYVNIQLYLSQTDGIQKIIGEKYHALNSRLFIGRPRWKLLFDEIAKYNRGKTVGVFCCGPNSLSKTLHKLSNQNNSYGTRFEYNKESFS
Assay: compounds shifting NOX4 Amplex Red fluorescence – cell-based, HEK293-NOX4, tetracycline-induced, NOX inhibitor project, primary screen (AID 1160)
Conditions: HEK293-NOX4, Amplex Red H2O2 fluorescence, 45 min; higher = more signal, called active from +8 up or from −8 down
Active and inactive are the calls of the source.
A collection of compounds and their measured z-score
Readout Label: z-score

CS(=O)(=O)CCOC(=O)C1=CC(CCCO)=CC(C2CC2)N(Cc2cc3c(cc2Br)OCO3)C=C1C(=O)OCCS(C)(=O)=O (stereo unspecified) :: -0.0814 (inactive)
COCCOC(=O)N1C(=O)[C@@]2(c3cc(C#CCCO)ccc31)[C@H](c1ccc(O)cc1)N1[C@H](c3ccccc3)[C@H](c3ccccc3)OC(=O)[C@H]1[C@@H]2C(=O)N1CCN(c2ncccn2)CC1 :: 0.682 (inactive)
COc1ccc(NC(=O)O[C@H]2[C@H](OC(=O)c3cc4ccccc4[nH]3)[C@@H](OC(=O)c3cc4ccccc4[nH]3)[C@@H](OC)O[C@@H]2CO)cc1 :: -1.18 (inactive)
CC(=O)Nc1cc(Br)ccc1C(=O)NCc1ccccc1 :: -0.427 (inactive)
COc1ccc([Si](C)(C)[C@H]2[C@H](CC(=O)N3CCC[C@H]3CO)O[C@@]3(C(=O)N(Cc4cccc(N5CCOC5=O)c4)c4ccccc43)[C@@H]2C)cc1 :: 1.76 (inactive)
CO[C@H]1O[C@H](CO)[C@@H](OC(=O)Nc2ccc(Br)cc2)[C@@H]2OC(=O)[C@H](Cc3cccc(Br)c3)C/C=C/C[C@@H](Cc3cccc(Br)c3)C(=O)O[C@@H]12 :: -0.686 (inactive)

###

Assay: compound effects on multiple myeloma cell viability – MM1S, calcein-AM fluorescence, 48 h, basal, profiling panel (AID 1165);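 further: viability of MM1S multiple myeloma cells under basal unstimulated conditions; test concentration not given here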
Conditions: higher = more signal
z-score by entry:
Readout Label: z-score

COC(=O)c1c(CC[C@@H](CO)NC(=O)N[C@@H](Cc2ccccc2)Cn2cc(-c3ccccn3)nn2)oc(C(=O)N2CCOCC2)c1C(=O)OC :: 0.527
COc1ccc([Si](C)(C)[C@H]2[C@H](CCn3cc([C@H](O)c4ccccc4)nn3)O[C@@]3(C(=O)N(C)c4ccccc43)[C@@H]2C)cc1 :: -0.615
NC(=O)[C@@H]1[C@H]2C(=O)O[C@H](c3ccccc3)[C@H](c3ccccc3)N2[C@H](c2ccc(O)cc2)[C@@]12C(=O)Nc1ccc(C#CC3=CCCCC3)cc12 :: -3.27
C[N+](C)(C)CCCC[C@@H]1NC(=O)[C@@H]2C[C@H](C(=O)NCCCCCN)[C@H](c3ccc(O)cc3)N2C1=O :: 0.312
CCCC=C(CCC)[C@@H](NS(=O)(=O)c1ccc(Cl)cc1)c1ccc(C(=O)OC)cc1 :: 0.48
CCOc1ccc(N2C(=O)CSC2c2cccc([N+](=O)[O-])c2)cc1 (configuration not stated) :: -0.119
O=C1C2C=CC(C(O)C=Cc3ccc([N+](=O)[O-])cc3)N(Nc3ccccc3F)C2C(=O)N1c1ccccc1 (configuration not stated) :: -1.45

###

Test system: Fibrinogen (Alexa647-labelled)
Experiment: Alexa647-fibrinogen binding to printed small molecules – biochemical, small-molecule microarray, 635/667 nm fluorescence, artefact control for SMM control-protein annotation, profiling panel (AID 1131);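 further: z-score merges 667 nm fluorescence with per-spot signal-to-noise over triplicate slides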
Settings: fibrinogen-A647 binding fluorescence, higher = more signal
criterion met means recorded composite z-score is 0.7 or above; criterion not met means it is below 0.7.

N#Cc1ccc(C(O)C2C=CC3C(=O)N(c4ccccc4)C(=O)C3N2Nc2ccccc2F)cc1 (centres undefined) :: criterion met
CO[C@H]1O[C@H](CO)[C@@H](OC(=O)Nc2ccccc2)[C@@H]2OC(=O)[C@@H](Cc3ccc4ccccc4c3)C/C=C/C[C@H](Cc3ccc4ccccc4c3)C(=O)O[C@@H]12 :: criterion met
OB1C=CCC(CCc2ccccc2)O1 (centres undefined) :: criterion not met
[N-]=[N+]=Nc1ccccc1C[C@@]1(C(=O)N2CCCCC2)N=C(c2ccc(OCCCO)cc2)O[C@@H]1c1ccccc1N=[N+]=[N-] :: criterion met
C=CCN1C(=O)[C@]2(Cc3ccccc3)N=C(c3ccc(OCCCO)cc3)O[C@@H]2c2ccccc21 :: criterion not met
CN(C)CCCCNC(=O)[C@@H]1C[C@@H]2C(=O)N[C@@H](CCCCN)C(=O)N2[C@@H]1c1ccc(O)cc1 :: criterion not met
COC(=O)[C@@]1(Cc2ccccc2)[C@H]2c3cc(C(=O)N4CCCC4)n(Cc4c(CO)[nH]cc(C)c4=O)c3C[C@H]2CN1C(=O)c1ccccc1 :: criterion met
O[C@@H](Cc1ccccc1)[C@@H](/C=C/C1CC1)NCc1cccc(Cl)c1 :: criterion not met
COC(=O)C(CC#Cc1ccc2c(c1)[C@]1(C(=O)N2)[C@H](c2ccccc2OCCO)N2[C@H](c3ccccc3)[C@H](c3ccccc3)OC(=O)[C@H]2[C@@H]1C(=O)O)C(=O)OC :: criterion met
C[N+](C)(C)CCCC[C@@H]1NC(=O)[C@@H]2C[C@H](C(=O)NCCCCCN)[C@H](c3ccc(O)cc3)N2C1=O :: criterion met
CO[C@H]1O[C@H](CO)[C@@H](OC(=O)Nc2ccc(Oc3ccccc3)cc2)[C@H](OC(=O)Nc2ccc3c(c2)OCO3)[C@@H]1OC(=O)Nc1ccc2c(c1)OCO2 :: criterion met
O=C(NC1CC1)[C@@H]1c2ccccc2C(=O)N(C2Cc3ccccc3C2)[C@H]1c1ccc(CO)cc1 :: criterion not met

###

Test: hepatitis C replication reporter changes, two-sided – Huh7 cells, luciferase reporter, HCV replication inhibitor project, primary screen (AID 1109);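 further: huh7 hepatoma cells harbouring a luciferase neomycin HCV replicon reporter; luciferase luminescence as measure of HCV replicon replication; test concentration not given here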
Conditions: Huh7 HCV replicon luciferase reporter, 48 h; higher = more signal
The entries below come with measured z-score values attached.
Readout Label: z-score

COc1ccc(C(O)C2C=CC3C(=O)N(C)C(=O)C3N2N(c2ccccc2)c2ccccc2)c2ccccc12 (configuration not stated) :: 0.352
C=C(CCCC)C(=O)CC[C@H](OC(=O)c1cccnc1)c1ccc(OCCO)cc1 :: -3.61
C[C@H]1C2[C@H](Cc3ccccc3)NC(=O)[C@]23C(=O)NCC(=O)N2CCC[C@H]2C(=O)NC/C=C/CCC/C=C/C3[C@@H]2O[C@]12C (some centres not stated) :: 0.478
C=C(/C(=C/C[C@H](OC(=O)c1ccncc1)c1ccc(OCCO)cc1)c1cc(C(=O)OC)ccc1OC)C(C)C :: -0.939
C[N+](C)(C)CCCC[C@@H]1NC(=O)[C@H]2C[C@@H](C(=O)NCCCCCCNC(=O)CS)[C@@H](c3ccc(O)cc3)N2C1=O :: -0.237
CCOC(=O)C[C@H]1[C@H](OC(=O)c2ccc(C(=O)c3ccccc3)cc2)[C@@H](NC(=O)c2ccccc2)c2cc(OCCCO)ccc2N1C(=O)c1ccccc1 :: -1.33
CN1C(=O)C2C=CC(C(O)c3ccc(F)cc3)N(N(c3ccccc3)c3ccccc3)C2C1=O (configuration not stated) :: -0.0952

###

Target: NADPH oxidase 2 (Homo sapiens) (UniProt P04839)
Sequence (P04839 whole entry, looked up): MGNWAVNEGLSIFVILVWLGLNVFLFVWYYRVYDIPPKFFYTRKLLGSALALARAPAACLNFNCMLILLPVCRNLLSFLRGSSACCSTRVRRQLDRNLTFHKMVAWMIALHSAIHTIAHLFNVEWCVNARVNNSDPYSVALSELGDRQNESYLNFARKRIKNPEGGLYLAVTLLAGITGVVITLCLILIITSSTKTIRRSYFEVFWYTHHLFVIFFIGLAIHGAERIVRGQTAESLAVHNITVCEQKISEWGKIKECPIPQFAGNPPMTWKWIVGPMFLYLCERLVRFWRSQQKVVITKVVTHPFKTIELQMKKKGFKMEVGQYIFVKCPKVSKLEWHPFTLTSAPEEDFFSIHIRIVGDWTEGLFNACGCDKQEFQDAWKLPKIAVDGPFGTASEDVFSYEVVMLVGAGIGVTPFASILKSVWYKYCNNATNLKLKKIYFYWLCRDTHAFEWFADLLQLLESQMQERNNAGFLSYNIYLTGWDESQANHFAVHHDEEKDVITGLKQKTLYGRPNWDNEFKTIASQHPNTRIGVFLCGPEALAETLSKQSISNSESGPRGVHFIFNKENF
Test: compounds shifting NOX2 Amplex Red fluorescence – cell-based, HEK293-NOX2, PMA-stimulated, NOX inhibitor project, primary screen (AID 1159); further: test concentration not given here
Settings: 45 min, higher = more signal, called active from +8 up or from −8 down
Binary call on z-score: Y from 0.5 upward, N beneath that.

CC(=O)NCCCC[C@@H]1NC(=O)[C@H]2C[C@@H](C(=O)NCCCCCNC(=O)CS)[C@@H](c3ccc(O)cc3)N2C1=O :: Y
CCCC[C@@H]1C[C@H]1[C@@H](NC(=O)c1cccnc1)c1ccc(Cl)cc1 :: N
OCC1C=C(/C=C/c2ccccc2)CN1Cc1ccccc1Br (stereo not given) :: Y
CCOc1cc(C(O)C2C=CC3C(=O)N(c4ccccc4)C(=O)C3N2Nc2ccc(C(C)C)cc2)ccc1O (stereo not given) :: N
C=CCN1C(=O)[C@]2(O[C@H](CCO)[C@@H]([Si](C)(C)c3ccc(OC)cc3)[C@@H]2C)c2cc(N(C=O)c3ccccc3)ccc21 :: N

###

Biological target: Albumin (Bos taurus)
Experiment: compounds binding labelled BSA control protein – biochemical, small-molecule microarray, Alexa647 label, 635/667 nm fluorescence, artefact control for SMM control protein annotation, profiling panel (AID 1118);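 further: score merges 667 nm emission intensity and signal-to-noise per printed compound spot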
Conditions: BSA-A647 binding, fluorescence 635 nm, higher = more signal
Returns Yes if the recorded composite z-score is greater than or equal to -0.03, and No otherwise.

CC(=O)NCCCC[C@@H]1NC(=O)[C@H]2C[C@@H](C(=O)O)[C@@H](c3ccc(O)cc3)N2C1=O :: No
O=C1C2C=CC(C(O)COCc3ccccc3)N(Nc3ccc([N+](=O)[O-])cc3)C2C(=O)N1c1ccccc1 (configuration not stated) :: Yes
C=CCC(OC(C)=O)[C@@H]1[C@@H](N(Cc2ccc(-c3ccccc3)cc2)C(=O)Cc2ccc(F)cc2)c2cc(OCCCO)ccc2N1C(=O)c1ccc2ccccc2c1 (some centres not stated) :: No
[N-]=[N+]=Nc1ccccc1[C@H]1OC(c2ccc(OCCCO)cc2)=N[C@@]1(Cc1ccccc1)C(=O)N1CCOCC1 :: Yes
C#CCNCc1ccccc1 :: No
C=CCNC(=O)[C@H]1[C@@H]2C(=O)O[C@@H](c3ccccc3)[C@@H](c3ccccc3)N2[C@@H](c2ccc(O)cc2)[C@]12C(=O)Nc1ccc(C#CCCO)cc12 :: Yes
CC1CC/C=C\[C@H]2OC34C=CCN(c5ccc6ccccc6c5)C(=O)[C@H]3N(CCO)C(=O)[C@@H]4C2C(=O)O1 (some centres not stated) :: Yes
